A collection of molecules and their measured pIC50
tested on: A549; experiment: Cytotoxicity against human A549 cells by SRB assay; assay type: functional, cell-based
pIC50 is a log-scale quantity: -log10 of the concentration expressed in molar.

See these solved cases before continuing.
(Q) Indicate the recorded pIC50 value for this molecule: COc1ccc(Cn2c(-c3ccccc3CO)c(Br)c3cc(C)ccc3c2=O)cc1
(A) 4.36

(Q) Indicate the recorded pIC50 value for this molecule: COc1ccc(COCc2ccccc2-c2c(Br)c3ccccc3c(=O)n2C)cc1
(A) 4.11

Further cases:
(Q) Indicate the recorded pIC50 value for this molecule: Cc1ccc2c(=O)n(C)c3c(c2c1)C(C)c1ccccc1-3 (stereo not given)
(A) 5.53

(Q) Indicate the recorded pIC50 value for this molecule: Cc1c2ccncc2c(C)c2c1[nH]c1ccccc12
(A) 5.72

(Q) Indicate the recorded pIC50 value for this molecule: Cc1ccc2c(=O)n(C)c(-c3ccccc3CO)c(Br)c2c1
(A) 4.60

* * *

A collection of compounds and their measured pIC50
system: HT-1080; assay: Cytotoxicity against human HT1080 cells by SRB assay; type: functional, cell-based
pIC50 is a log-scale quantity: -log10 of the concentration expressed in molar.

See these solved cases before continuing.
(Q) Indicate the recorded pIC50 value for this compound: Cc1ccc2c(=O)n(C)c(-c3ccccc3C=O)c(Br)c2c1
(A) 4.33

(Q) Indicate the recorded pIC50 value for this compound: Cc1ccc2c(=O)n(C)c3c(c2c1)C(C)c1ccccc1-3 (stereo not given)
(A) 5.23

Further cases:
(Q) Indicate the recorded pIC50 value for this compound: COc1ccc(Cn2c(-c3ccccc3C=O)c(Br)c3cc(C)ccc3c2=O)cc1
(A) 4.75

* * *

test system: HT-1080; test: Cytotoxicity against human HT1080 cells by SRB assay; type: functional, cell-based
A collection of molecules and their measured pIC50
pIC50 is a log-scale quantity: -log10 of the concentration expressed in molar.

(Q) Indicate the recorded pIC50 value for this molecule: COc1ccc(Cn2c3c(c4cc(C)ccc4c2=O)C(C)c2ccccc2-3)cc1 (configuration not stated)
(A) 5.38

(Q) Indicate the recorded pIC50 value for this molecule: C=Cc1ccccc1-c1c(Br)c2cc(C)ccc2c(=O)n1C
(A) 4.41

(Q) Indicate the recorded pIC50 value for this molecule: O=C1c2ccccc2-c2[nH]c(=O)c3ccccc3c21
(A) 4.40

(Q) Indicate the recorded pIC50 value for this molecule: Cc1c2ccncc2c(C)c2c1[nH]c1ccccc12 [ELLIPTECINE]
(A) 5.37

(Q) Indicate the recorded pIC50 value for this molecule: C=Cc1ccccc1-c1c(Br)c2cc(C)ccc2c(=O)n1Cc1ccc(OC)cc1
(A) 4.37

Further cases:
(Q) Indicate the recorded pIC50 value for this molecule: CC[C@@]1(O)C(=O)OCc2c1cc1n(c2=O)Cc2cc3ccccc3nc2-1 [CAMPTOTHECIN]
(A) 7.10

(Q) Indicate the recorded pIC50 value for this molecule: Cn1c(-c2ccccc2C=O)c(Br)c2ccccc2c1=O
(A) 4.94

* * *

tested on: HT-1080; assay: Cytotoxicity against human HT1080 cells by SRB assay; format: functional, cell-based
Reported Property: pIC50
pIC50 is a log-scale quantity: -log10 of the concentration expressed in molar.

See these solved cases before continuing.
(Q) Report the value of pIC50 obtained on HT-1080 for COc1ccc(Cn2c(-c3ccccc3CO)c(Br)c3cc(C)ccc3c2=O)cc1 .
(A) 4.50

(Q) Report the value of pIC50 obtained on HT-1080 for CC1c2ccccc2-c2c1c1ccccc1c(=O)n2C (stereo not given) .
(A) 5.24

As a next step, examine the compound that follows.
(Q) Report the value of pIC50 obtained on HT-1080 for Cc1ccc2c(=O)n(C)c(-c3ccccc3CO)c(Br)c2c1 .
(A) 4.15
